System name: Aryl hydrocarbon receptor (Homo sapiens) (UniProt P35869)
Sequence (P35869 whole entry, looked up): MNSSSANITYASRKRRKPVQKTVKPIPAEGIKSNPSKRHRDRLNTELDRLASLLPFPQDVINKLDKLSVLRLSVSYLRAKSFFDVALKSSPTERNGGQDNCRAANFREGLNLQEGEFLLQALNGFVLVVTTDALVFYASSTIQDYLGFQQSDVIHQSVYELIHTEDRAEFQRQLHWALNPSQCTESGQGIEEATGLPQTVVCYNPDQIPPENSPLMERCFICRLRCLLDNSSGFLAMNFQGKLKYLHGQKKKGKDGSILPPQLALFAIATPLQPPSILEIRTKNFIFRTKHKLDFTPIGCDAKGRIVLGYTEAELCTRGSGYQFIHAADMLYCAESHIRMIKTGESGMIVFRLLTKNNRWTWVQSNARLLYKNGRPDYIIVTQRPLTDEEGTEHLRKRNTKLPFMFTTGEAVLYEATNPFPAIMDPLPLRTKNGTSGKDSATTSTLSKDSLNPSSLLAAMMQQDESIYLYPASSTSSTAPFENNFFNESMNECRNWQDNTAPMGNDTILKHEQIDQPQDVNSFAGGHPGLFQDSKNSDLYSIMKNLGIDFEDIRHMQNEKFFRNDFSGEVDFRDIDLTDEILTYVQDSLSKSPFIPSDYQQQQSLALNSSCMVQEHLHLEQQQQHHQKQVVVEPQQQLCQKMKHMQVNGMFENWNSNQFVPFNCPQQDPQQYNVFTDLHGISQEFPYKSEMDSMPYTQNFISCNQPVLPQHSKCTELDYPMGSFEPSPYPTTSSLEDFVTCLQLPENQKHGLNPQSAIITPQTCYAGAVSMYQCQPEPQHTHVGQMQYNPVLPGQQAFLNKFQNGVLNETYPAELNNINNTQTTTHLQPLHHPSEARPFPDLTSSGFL
Measurement protocol: qHTS assay to identify small molecule that activate the aryl hydrocarbon receptor (AhR) signaling pathway (AID 743085);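 note: HG2L7.5c1 human HepG2 liver cells with stably integrated DRE-driven firefly reporter; nearly all actives have a fitted effect of over 15% in size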
Condition label: HepG2 AhR-luc (HG2L7.5c1), luciferase, 24 h; series mostly up to 70.3 µM
Results filed as inconclusive are left out. Calls of active or inactive are those of the source. Calls come from the whole dose curve; as a rule, active = well fitted activation curve with a large enough effect in the repeat runs; inconclusive = weak or mixed curves; inactive = no such curve, though single readings can be large or run the other way.
Result type: outcome

Here's what some known entries look like.
compound=Cc1ccc(S(=O)(=O)Oc2ccc(N=Nc3ccc(-c4ccc(N=Nc5c(O)ccc6cc(S(=O)(=O)O)cc(S(=O)(=O)O)c56)c(C)c4)cc3C)cc2)cc1 result_type=outcome endpoint_value=inactive
compound=Cc1ccnc2c1NC(=O)c1cccnc1N2C1CC1 result_type=outcome endpoint_value=inactive
compound="CCCCC(CC)COC(=O)CC(C(=O)OCC(CC)CCCC)S(=O)(=O)O (stereo unspecified)" result_type=outcome endpoint_value=inactive
compound=CC1=C(C=O)C(C)(C)CC=C1 result_type=outcome endpoint_value=inactive
compound=COc1ccc(Cc2cnc(N)nc2N)cc1OC result_type=outcome endpoint_value=inactive

input: Give recorded outcome. O=C(O)c1cc(Cl)cc(Cl)c1
output: inactive

* * *

Measurement protocol: qHTS assay to identify small molecule agonists of the farnesoid-X-receptor (FXR) signaling pathway - cell viability counter screen (AID 743218); note: nearly all actives have a fitted effect of over 45% in size
Condition label: FXR-bla HEK293T viability, CellTiter-Glo luminescence, 16 h; series mostly up to 62.6 µM
Records with an inconclusive call do not appear. Active and inactive are the calls of the source. Calls come from the whole dose curve; as a rule, active = well fitted cell-killing curve with a large enough effect in the repeat runs; inconclusive = weak or mixed curves, or effect the other way; inactive = no such curve, though single readings can be large or run the other way.
Please state which outcome applies, choosing from yes = active, no = inactive

# count of solved cases: 5
smiles_text=CC(C)(C)NC(=O)[C@@H]1CN(Cc2cccnc2)CCN1C[C@@H](O)C[C@@H](Cc1ccccc1)C(=O)N[C@H]1c2ccccc2C[C@H]1O assigned_category=no
smiles_text=Nc1cc(S(=O)(=O)O)cc2cc(S(=O)(=O)O)cc(O)c12 assigned_category=no
smiles_text=Cc1cc(C(C)(C)C)c(O)c(C(C)(C)C)c1 assigned_category=no
smiles_text=COC(=O)[C@H]1[C@H]2C[C@@H]3c4[nH]c5cc(OC)ccc5c4CCN3C[C@H]2C[C@@H](OC(=O)c2cc(OC)c(OC)c(OC)c2)[C@@H]1OC assigned_category=yes
smiles_text=Cc1cccc([N+](=O)[O-])c1C(=O)O assigned_category=no

input: Recorded test call requested for Cc1cccc2n[nH]nc12
output: no

input: Recorded test call requested for Cc1cc(C2(c3cc(C)c(O)cc3C)OS(=O)(=O)c3ccccc32)c(C)cc1O
output: no

input: Recorded test call requested for Cc1ccc(S(=O)(=O)Oc2ccc(N=Nc3ccc(-c4ccc(N=Nc5c(O)ccc6cc(S(=O)(=O)O)cc(S(=O)(=O)O)c56)c(C)c4)cc3C)cc2)cc1
output: no

input: Recorded test call requested for O=C(O)c1cn(-c2ccc(F)cc2)c2cc(N3CCNCC3)c(F)cc2c1=O
output: no

* * *

Measurement protocol: qHTS assay to identify small molecule agonists of the estrogen receptor alpha (ER-alpha) signaling pathway in the presence of an antagonist - cell viability counter screen (AID 1259386);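 note: cells exposed to compounds for 22 h at 37 °C before the viability read; nearly all actives have a fitted effect of over 30% in size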
Condition label: VM7Luc4E2 viability, CellTiter-Fluor fluorescence, 22 h; series mostly up to 92.4 µM
Inconclusive results are not listed. Active and inactive are the calls of the source. Calls come from the whole dose curve; as a rule, active = well fitted cell-killing curve with a large enough effect in the repeat runs; inconclusive = weak or mixed curves, or effect the other way; inactive = no such curve, though single readings can be large or run the other way.
Please state which outcome applies, choosing from active, inactive

# count of solved cases: 5
compound="O=c1n(CC2CO2)c(=O)n(CC2CO2)c(=O)n1CC1CO1 (stereo not given)" assigned_category=inactive
compound="c1cc(C(c2ccc(OCC3CO3)cc2)C(c2ccc(OCC3CO3)cc2)c2ccc(OCC3CO3)cc2)ccc1OCC1CO1 (stereo not given)" assigned_category=inactive
compound=O=C(OCc1ccccc1)c1ccc(O)cc1 assigned_category=inactive
compound=CCCCCCCCCCCCc1ccccc1O assigned_category=active
compound=O=C(O)Cn1cnnn1 assigned_category=inactive

input: Recorded test call requested for CCCCCCCCCCCC[N+](C)(C)C
output: active

* * *

Measurement protocol: qHTS assay for small molecule disruptors of the mitochondrial membrane potential (AID 720635)
Condition label: HepG2 mitochondrial membrane potential, Mito-MPS dye ratio; series mostly up to 83.2 µM
Inconclusive results are not listed. Calls of active or inactive are those of the source. Calls come from the whole dose curve; as a rule, active = well fitted inhibition curve with a large enough effect in the signal ratio in the repeat runs; inconclusive = weak or mixed curves, or effect the other way; inactive = flat fitted curve, though single readings scatter; the % refers to the signal ratio.
Please state which outcome applies, choosing from active, inactive

# count of solved cases: 8
molecule="CCN1CCCC1CNC(=O)c1cc(S(=O)(=O)CC)c(N)cc1OC (centres undefined)" assigned_category=inactive
molecule=NC(N)=NC(=O)Cc1c(Cl)cccc1Cl assigned_category=inactive
molecule=CC(=O)OCCOCCOCCOC(C)=O assigned_category=inactive
molecule=Cc1cccc([N+](=O)[O-])c1C(=O)O assigned_category=inactive
molecule=Cc1cccc(O)c1C assigned_category=inactive
molecule=O=C(O)CCc1ccccc1 assigned_category=inactive
molecule="CCCNC(C)C(=O)Nc1ccccc1C (centres undefined)" assigned_category=inactive
molecule=C=CC(=O)OCCCCCCOC(=O)C=C assigned_category=inactive

input: Recorded test call requested for c1ccc2n[nH]nc2c1
output: inactive

input: Recorded test call requested for C[N+]1([O-])CCOCC1
output: inactive

* * *

Measurement protocol: qHTS assay to identify aromatase inhibitors - cell viability counter screen (AID 743084);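 note: cells stimulated with testosterone during compound exposure; nearly all actives have a fitted effect of over 55% in size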; note: potency is the fitted concentration of half-maximal effect
Condition label: MCF-7 aro ERE viability, CellTiter-Fluor, 24 h; series mostly up to 70.3 µM
Inconclusive results are not listed. Active and inactive are the calls of the source. The call rests on the fitted dose curve; in most records, active means well fitted cell-killing curve with a large enough effect in the repeat runs; inconclusive means weak or mixed curves, or effect the other way; inactive means no such curve, though single readings can be large or run the other way.
Result type: Potency

Here's what some known entries look like.
smiles_text=CCC(CO)(CO)COCC(CC)(CO)CO result_type=Potency endpoint_value=inactive
smiles_text=CC(=O)Nc1ccc(C(=O)CCl)cc1 result_type=Potency endpoint_value="7.7 µM (active)"
smiles_text=O=C(O)c1cn(-c2ccc(F)cc2)c2cc(N3CCNCC3)c(F)cc2c1=O result_type=Potency endpoint_value=inactive
smiles_text=CCc1ccc(C(c2ccc(CC)cc2)C(Cl)Cl)cc1 result_type=Potency endpoint_value=inactive

input: Give recorded Potency. O=Nc1ccc(Nc2ccccc2)cc1
output: 27.4 µM (active)

input: Give recorded Potency. COC(c1ccccc1)(c1ccccc1)[C@H](Oc1nc(C)cc(C)n1)C(=O)O
output: inactive

* * *

Measurement protocol: qHTS assay to identify small molecule antagonists of the peroxisome proliferator-activated receptor gamma (PPARg) signaling pathway - cell viability counter screen (AID 743194); note: nearly all actives have a fitted effect of over 55% in size
Condition label: PPARg-bla HEK293H viability, CellTiter-Glo luminescence, 17 h, co-treated with 50 nM rosiglitazone; series mostly up to 62.6 µM
Results filed as inconclusive are left out. Calls of active or inactive are those of the source. The call rests on the fitted dose curve; in most records, active means well fitted cell-killing curve with a large enough effect in the repeat runs; inconclusive means weak or mixed curves, or effect the other way; inactive means no such curve, though single readings can be large or run the other way.
Please state which outcome applies, choosing from active, inactive

input: Recorded test call requested for CCc1cc(C(C)(C)C)c(O)c(C(C)(C)C)c1
output: inactive

input: Recorded test call requested for CCOC(=O)C(C)C(C)=O (stereo not drawn)
output: inactive

input: Recorded test call requested for O=C(O)c1cc(Cl)cc(Cl)c1
output: inactive

input: Recorded test call requested for O=C(Nc1ccccc1SSc1ccccc1NC(=O)c1ccccc1)c1ccccc1
output: inactive

input: Recorded test call requested for C#CC(C)(CC)OC(=O)c1ccccc1C(=O)O (stereo not drawn)
output: inactive

input: Recorded test call requested for CC1COC(=O)O1 (stereo not drawn)
output: inactive

* * *

Measurement protocol: A CellTox Green Cytotoxicity Assay to monitor cytotoxicity in HepG2 cells - 16 hour (AID 1224876); note: nearly all actives have a fitted effect of over 45% in size
Condition label: CellTox Green fluorescence; series mostly up to 76.8 µM
Results filed as inconclusive are left out. The source made the active and inactive calls. The call rests on the fitted dose curve; in most records, active means well fitted activation curve with a large enough effect in the repeat runs; inconclusive means weak or mixed curves; inactive means flat fitted curve, though single readings scatter.
Please state which outcome applies, choosing from Y (active), N (inactive)

# count of solved cases: 5
compound=Clc1ccc2c(c1)C(N1CCNCC1)=Nc1ccccc1O2 assigned_category=Y
compound=O assigned_category=N
compound=CC(=O)OCC1=C(C(=O)O)N2C(=O)[C@@H](NC(=O)Cc3cccs3)[C@H]2SC1 assigned_category=N
compound="CCN(CC)C(=O)Nc1ccc(OCC(O)CNC(C)(C)C)c(C(C)=O)c1 (stereo unspecified)" assigned_category=N
compound="CCn1cc(C(=O)O)c(=O)c2cc(F)c(N3CCNC(C)C3)c(F)c21 (stereo unspecified)" assigned_category=N

Please find the next compound below.
input: Recorded test call requested for CN1C(=O)c2ccc([N+](=O)[O-])cc2C1=O
output: N

* * *

System name: Progesterone receptor (Homo sapiens) (UniProt P06401)
Sequence (P06401 whole entry, looked up): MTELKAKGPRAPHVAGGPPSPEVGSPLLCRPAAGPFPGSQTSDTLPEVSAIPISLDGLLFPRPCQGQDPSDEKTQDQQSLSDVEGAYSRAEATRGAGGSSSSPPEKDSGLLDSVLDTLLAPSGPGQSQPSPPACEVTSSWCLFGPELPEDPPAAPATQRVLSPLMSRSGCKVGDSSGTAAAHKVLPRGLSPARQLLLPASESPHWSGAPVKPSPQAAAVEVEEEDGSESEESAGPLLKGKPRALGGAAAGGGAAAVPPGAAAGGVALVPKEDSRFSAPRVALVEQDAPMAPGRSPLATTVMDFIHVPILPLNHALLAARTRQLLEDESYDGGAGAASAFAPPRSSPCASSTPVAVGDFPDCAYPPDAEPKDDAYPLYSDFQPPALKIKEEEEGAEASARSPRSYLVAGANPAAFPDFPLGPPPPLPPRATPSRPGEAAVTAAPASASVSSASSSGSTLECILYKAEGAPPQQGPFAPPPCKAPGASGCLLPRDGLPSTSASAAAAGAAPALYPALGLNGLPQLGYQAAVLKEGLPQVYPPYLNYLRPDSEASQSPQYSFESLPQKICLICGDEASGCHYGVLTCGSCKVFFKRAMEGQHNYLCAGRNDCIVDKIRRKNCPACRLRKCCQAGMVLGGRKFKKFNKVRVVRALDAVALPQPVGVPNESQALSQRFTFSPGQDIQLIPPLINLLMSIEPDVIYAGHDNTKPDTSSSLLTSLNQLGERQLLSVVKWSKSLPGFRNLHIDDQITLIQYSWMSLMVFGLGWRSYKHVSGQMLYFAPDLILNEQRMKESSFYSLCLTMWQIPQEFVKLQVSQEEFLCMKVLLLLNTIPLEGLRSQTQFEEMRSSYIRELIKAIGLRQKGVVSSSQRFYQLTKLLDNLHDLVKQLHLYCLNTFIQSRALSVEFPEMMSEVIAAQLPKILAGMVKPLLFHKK
Measurement protocol: qHTS assay to identify small molecule agonists of the progesterone receptor (PR) signaling pathway (AID 1346784); note: nearly all actives have a fitted effect of over 30% in size
Condition label: PR-UAS-bla HEK293T, beta-lactamase FRET ratio, 16 h; series mostly up to 92.4 µM
Inconclusive results are not listed. Active and inactive are the calls of the source. The call rests on the fitted dose curve.
Result type: outcome

Here's what some known entries look like.
molecule=CCN(CC)C(=S)SSC(=S)N(CC)CC result_type=outcome endpoint_value=inactive
molecule=OCC(CO)N[C@H]1C[C@](O)(CO)[C@@H](O)[C@H](O)[C@H]1O result_type=outcome endpoint_value=inactive
molecule="CCCCCCC(O)CCCCCCCCCCC(=O)O (configuration not stated)" result_type=outcome endpoint_value=inactive
molecule=CCCCN(CCO)CCCC result_type=outcome endpoint_value=inactive
molecule="CNC1(C)C2CCC(C2)C1(C)C (configuration not stated)" result_type=outcome endpoint_value=inactive

input: Give recorded outcome. c1cc(C(c2ccc(OCC3CO3)cc2)C(c2ccc(OCC3CO3)cc2)c2ccc(OCC3CO3)cc2)ccc1OCC1CO1 (configuration not stated)
output: inactive

input: Give recorded outcome. O=C(Nc1ccccc1SSc1ccccc1NC(=O)c1ccccc1)c1ccccc1
output: inactive
